Where these numbers come from: patent US20230293630A1

Parameter Sum of response: see the listing below.
- System: SARS-CoV-2-specific CD4+ T cells (OX40+CD137+) in PBMC; note: unit not given here
- Assay type: cell-based, human
- settings: CD4+ T cell epitopes identified by AIM assay; total response summed over donors
observable: Sum of response

>  <chain-sequence>
SFIEDLLFNKVTLAD

>  <measured>
812

$$$$
>  <chain-sequence>
KNPLLYDANYFLCWH [SEQ ID NO 253]

>  <measured>
112

$$$$
>  <chain-sequence>
AQYTSALLAGTITSG

>  <measured>
336

$$$$
>  <chain-sequence>
FLGIITTVAAFHQEC [SEQ ID NO 254]

>  <measured>
185

$$$$

---

Parameter Total SFC: see the listing below.
- System: human T cells
- test-protocol: T cell cytokine SFC response to cross-reactive CD4 epitopes (Tables 6-8)
- Format: cell-based
- settings: cross-reactive CD4 non-spike SARS-CoV-2 epitopes; all cytokines

>  <substance>
847 (MKIILFLALITLATC) [compound 847]

>  <system>
human T cells

>  <Total SFC [SFC]>
373

$$$$
>  <substance>
820 (EEIAIILASFSASTS) [compound 820]

>  <system>
human T cells

>  <Total SFC [SFC]>
13813

$$$$
>  <substance>
245 (DDQIGYYRRATRRIR) [compound 245]

>  <system>
human T cells

>  <Total SFC [SFC]>
787

$$$$
>  <substance>
248 (PSGTWLTYTGAIKLD) [compound 248]

>  <system>
human T cells

>  <Total SFC [SFC]>
1227

$$$$
>  <substance>
247 (LLLLDRLNQLESKMS) [compound 247]

>  <system>
human T cells

>  <Total SFC [SFC]>
1053

$$$$

---

Parameter IL13: see the listing below.
- System: human T cells
- test-protocol: T cell cytokine SFC response to cross-reactive CD4 epitopes (Tables 6-8)
- Type: cell-based
- settings: cross-reactive CD4 non-spike epitopes; IL13 spot forming cells

>  <substance>
246 (DAALALLLLDRLNQL) [compound 246]

>  <system>
human T cells

>  <IL13>
0

$$$$
>  <substance>
846 (YIINLIIKNLSKSLT) [compound 846]

>  <system>
human T cells

>  <IL13>
0

$$$$
>  <substance>
807 (LAILTALRLCAYCCN) [compound 807]

>  <system>
human T cells

>  <IL13>
0

$$$$
>  <substance>
820 (EEIAIILASFSASTS) [compound 820]

>  <system>
human T cells

>  <IL13>
1507

$$$$
>  <substance>
847 (MKIILFLALITLATC) [compound 847]

>  <system>
human T cells

>  <IL13>
0

$$$$
